Please provide measured T/C for the entries that follow.
Tested on: L1210 leukemia ip in BDF1 mice, survival T/C
RUN_DESCRIPTION: NCI In Vivo Anticancer Drug Screen. Data for tumor model L1210 Leukemia (intraperitoneal) in B6D2F1 (BDF1) mice
CONDITION_CONTEXT: endpoint: mean survival time; dose: 100.0 mg/kg/injection; schedule: Q01DX001 (ip); vehicle: saline with Tween-80; higher = longer survival
Toxic doses and inconclusive results are not listed.

Solved cases (4 shown):
# COMPOUND, ASSAYED_TARGET, T/C
data = [
    ("O=C1C=CC(=O)C2C3c4ccccc4C(c4ccccc43)C12 (stereo not drawn)", "L1210 leukemia ip in BDF1 mice, survival T/C", "93 % of control"),
    ("CC1=C(C)C23OCC(CO2)CC3=C(C)C1=O", "L1210 leukemia ip in BDF1 mice, survival T/C", "93 % of control"),
    ("Cc1ccc(-c2c(C)c(-c3ccccc3)c(-c3ccccc3)c(C)c2-c2ccccc2)cc1C", "L1210 leukemia ip in BDF1 mice, survival T/C", "104 % of control"),
    ("CN(C(=O)COc1ccc(N2C(N)=NC(N)=NC2(C)C)cc1Cl)c1ccc(S(=O)(=O)F)cc1", "L1210 leukemia ip in BDF1 mice, survival T/C", "112 % of control"),
]

Hello, I would appreciate it if you could give T/C for each entry below.
1. O=S(=O)(/N=C1C=C/C(=N\S(=O)(=O)c2ccccc2)C(Sc2ccccc2)=C\1)c1ccccc1
2. O=Nc1c(O)ccc2ccccc12
3. O=c1cc[nH]c2ccccc12
4. O=C(OCC1OCC(OC(=O)c2ccccc2)C1OC(=O)c1ccccc1)c1ccccc1 (stereo not drawn)
5. COC(=O)C1CN1C(c1ccccc1)(c1ccccc1)c1ccccc1 (stereo not drawn)
6. CCCP(=S)(CCC)CCC
7. CCCCCCCC#N
8. CSc1ccc(NC(=O)OCCOc2ccccc2)cc1

91 % of control
91 % of control
96 % of control
92 % of control
92 % of control
103 % of control
92 % of control
94 % of control

Hello, I would appreciate it if you could give T/C for each entry below.
1. CN(C)C(=S)Oc1ccc(O)cc1
2. O=C(COc1ccccc1)NC(=S)Nc1ccc(F)c([N+](=O)[O-])c1
3. CCC1CCC(NC(C)=O)CC1 (stereo not drawn)
4. Cc1ccccc1C(O)c1ccccc1Cl (stereo not drawn)
5. CCCCSc1nc2ccccc2[nH]1
6. Cc1cccc(NC(=O)CSc2cc(Cl)c(Cl)cc2Cl)c1

1. 102 % of control
2. 113 % of control
3. 94 % of control
4. 109 % of control
5. 93 % of control
6. 93 % of control

###

System: L1210 leukemia ip in BDF1 mice, survival T/C
RUN_DESCRIPTION: NCI In Vivo Anticancer Drug Screen. Data for tumor model L1210 Leukemia (intraperitoneal) in B6D2F1 (BDF1) mice
CONDITION_CONTEXT: endpoint: mean survival time; dose: 200.0 mg/kg/injection; schedule: Q04DX002 (ip); vehicle: saline with Tween-80; higher = longer survival
Inconclusive results and toxic doses are left out.
ENDPOINT_NAME: T/C

# COMPOUND, T/C
data = [
    ("C1=Nc2ccccc2/C1=C/c1cccc2ccccc12", "101 % of control"),
    ("N#Cc1ccc(N=S=O)cc1", "112 % of control"),
    ("O=C1c2cscc2C(O)c2c(Cl)sc(Cl)c21 (centres undefined)", "97 % of control"),
    ("COc1cc(C)cc(C(=O)O)c1", "101 % of control"),
]

Hello, I would appreciate it if you could give T/C for each entry below.
1. CCCCCCCC(CCCCCC)CCCCCCC
2. OCC1C(CO)C2CC1C1N=NN(c3ccccc3)C21 (centres undefined)
3. COc1ccc(OC)c(/C=N\NC(=O)N/N=C/c2cc(OC)ccc2OC)c1
4. CCCCNC(=O)C1CCC(CC2CCCCC2)CC1 (centres undefined)
5. S=C1SC2(CCCCCC2)NC2=C1CCCCC2
6. N#C/C(=C\C=C\C1CCCCC1)C1CCC([N+](=O)[O-])CC1 (centres undefined)
7. O=S(=O)(c1ccccc1)n1ccc2ccccc21
8. O=C1c2cccc3cccc(c23)C1(Br)C(Br)c1ccccc1 (centres undefined)

1: 103 % of control; 2: 90 % of control; 3: 101 % of control; 4: 105 % of control; 5: 89 % of control; 6: 94 % of control; 7: 97 % of control; 8: 97 % of control

Hello, I would appreciate it if you could give T/C for each entry below.
1. CC(CCl)OP(=O)(Cc1ccccc1)OC(C)CCl (centres undefined)
2. Cc1cc(Cl)cc(C(=O)Cl)c1O

1: 98 % of control; 2: 107 % of control

###

System: L1210 leukemia ip in BDF1 mice, survival T/C
RUN_DESCRIPTION: NCI In Vivo Anticancer Drug Screen. Data for tumor model L1210 Leukemia (intraperitoneal) in B6D2F1 (BDF1) mice
CONDITION_CONTEXT: endpoint: mean survival time; dose: 200.0 mg/kg/injection; schedule: Q04DX003 (ip); vehicle: saline with Tween-80; higher = longer survival
Inconclusive results and toxic doses are left out.
Please provide measured T/C for the entries that follow.

Hello, I would appreciate it if you could give T/C for each entry below.
1. C=C(C)COc1cc(C=NCCCC)c(C)cc1C
2. Nc1ccc2c(c1)Cc1ccccc1-2
3. Nc1cc(Cl)ccc1S(N)(=O)=O
4. O=C1CCCN(Cc2ccccc2)C(=O)N1
5. CC(=O)OC1(C2(OC(C)=O)C=CC(=NS(=O)(=O)c3ccccc3)C=C2)C=CC(=NS(=O)(=O)c2ccccc2)C=C1 (configuration not stated)
6. COc1ccccc1C1(O)c2ccccc2Sc2cccc(OC)c21 (configuration not stated)
7. CCCCN(c1ccccc1)c1ncnc2c1cnn2C

["102 % of control", "101 % of control", "105 % of control", "103 % of control", "90 % of control", "95 % of control", "96 % of control"]

Hello, I would appreciate it if you could give T/C for each entry below.
1. CN(C)C(=O)c1cccc([N+](=O)[O-])c1
2. O=C(O)CCCc1ccc(Br)cc1

1: 94 % of control; 2: 92 % of control

Hello, I would appreciate it if you could give T/C for each entry below.
1. O=[N+]([O-])c1ccc(Cl)c(CNc2ncnc3c2ncn3C2CCCCO2)c1 (configuration not stated)
2. Nc1nc(NCCCc2ccccc2)c(N=Nc2ccccc2)c(=O)[nH]1
3. COC1OC2COCOC2C(OS(=O)(=O)c2ccc(C)cc2)C1OS(=O)(=O)c1ccc(C)cc1 (configuration not stated)

92 % of control
86 % of control
86 % of control

###

Test system: L1210 leukemia ip in BDF1 mice, survival T/C
RUN_DESCRIPTION: NCI In Vivo Anticancer Drug Screen. Data for tumor model L1210 Leukemia (intraperitoneal) in B6D2F1 (BDF1) mice
CONDITION_CONTEXT: endpoint: mean survival time; dose: 6.25 mg/kg/injection; schedule: Q01DX009 (ip); vehicle: saline; higher = longer survival
Inconclusive results and toxic doses are left out.
ENDPOINT_NAME: T/C

Solved cases (3 shown):
# COMPOUND, T/C
data = [
    ("CCC[N+](C)(C)CCCCOCCCC[N+](C)(C)CCC", "92 % of control"),
    ("C[n+]1c2cc(N)ccc2cc2ccc(N)cc21", "122 % of control"),
    ("COc1ccc2c(=O)c(C)c(C)oc2c1CN1CCOCC1", "100 % of control"),
]

Hello, I would appreciate it if you could give T/C for each entry below.
1. OCCN1CCN(CCCN2c3ccccc3C=Cc3ccccc32)CC1
2. CN1CCC(OC2c3ccccc3CCc3ccccc32)CC1
3. COc1cc(CN(C)C2CCCCC2)cc(OC)c1OC
4. Cc1c2cc3c(cc2cc2c4cc5c(cc4cc[n+]12)OCO5)OCO3 (tested in a mixture with another compound)
5. Cc1cc([N+](=O)[O-])cc(C)c1OC(=O)c1ccc(N=C(N)N)cc1

["93 % of control", "108 % of control", "103 % of control", "110 % of control", "93 % of control"]

Reported T/C for O=C(Oc1ccccc1)C(Cl)(Cl)Cl : what is it?
95 % of control

###

Tested on: L1210 leukemia ip in BDF1 mice, survival T/C
RUN_DESCRIPTION: NCI In Vivo Anticancer Drug Screen. Data for tumor model L1210 Leukemia (intraperitoneal) in B6D2F1 (BDF1) mice
CONDITION_CONTEXT: endpoint: mean survival time; dose: 100.0 mg/kg/injection; schedule: Q01DX009 (ip); vehicle: Klucel (hydroxypropylcellulose) (HPC); higher = longer survival
Inconclusive results and toxic doses are left out.
Please provide measured T/C for the entries that follow.

# COMPOUND, T/C
measured = [
    ("ClC(c1ccccc1)C1(Cl)C=c2ccccc2=C1 (stereo not drawn)", "98 % of control"),
    ("Nc1nc(Cl)nc(C(Cl)(Cl)Cl)c1Cl (tested in a mixture with another compound)", "87 % of control"),
]

Hello, I would appreciate it if you could give T/C for each entry below.
1. CCOC(=O)Nc1cccc(C)c1C
2. CCCCOC(=O)NC/C(Br)=C/Br

1: 100 % of control; 2: 96 % of control
